Data origin, for the record: the nanobody polyreactivity screen of Harvey et al. (2022)

- Assay summary: yeast display, Sf9 membrane polyspecificity reagent, FACS + sequencing; frameworks hold sequencing errors
Property measured: polyreactivity (PSR sort gate)

Sequence string: QVQLVESGGGLVQAGGSLRLSCAASVYIFVRNALGWYRQAPGKERELVAAISGSGGSTYYADSVKGRFTISRDNAKNTVSLQMNSLIPEDTAVDYCAADYATVTWRGIAYDYWGQGTQVTVSS
polyreactivity (PSR sort gate): low polyreactivity
//
Sequence string: QVQLVESGGGLVQAGGSLRLSCAASGRTLHYYAMGWYRQAPGKERELVARINWSGGSTYYADSVKGRFTISRDNAKNTVYLQMNCLKPEDTAVYYCARTSYYWSSFDYWGQGTQVTVSS
polyreactivity (PSR sort gate): high polyreactivity
//
Sequence string: QVQLVESGGGLVQAGGSLRLSCAASGFTFAGYAMGWYRQAPGKERELVAPINRGGSTYYADSVKGRFTISRDNAKNTVYLQMNSLKQEDTAVYYCADRQEPGWYPDVWWEYDYWGQGTQVTVSS
polyreactivity (PSR sort gate): low polyreactivity
//
Sequence string: QVQLVESGGGLVQAGGSLRLSCAASGTIFVGYAMGWYRQAPGKERELVAAISWSGGRTYYADSVKGRFTISRDNAKNTVYLQMNSLKPEDTAVYYCAAPRYGGWRSYQKYDYWGQGTQVTVSS
polyreactivity (PSR sort gate): high polyreactivity

Prompt line: polyreactivity (PSR sort gate) for QVQLVESGGGLVQAGGSLRLSCAASGRIFSGYAMGWYRKAPGKERELVAAINRGGDTNYADSVKGRFTISRDNAKNTVYLQMNSLKPEDTAVYYCAAQYSGRYRRVPKSYPDRGDYWGQGTQVTVSS ?
Response line: low polyreactivity
